# Test Target: 5-HT4 receptors (Rattus norvegicus)
# Construct: from tissue; host or cells: rat oesophageal tunica muscularis mucosae
# Sequence (Q62758 whole entry): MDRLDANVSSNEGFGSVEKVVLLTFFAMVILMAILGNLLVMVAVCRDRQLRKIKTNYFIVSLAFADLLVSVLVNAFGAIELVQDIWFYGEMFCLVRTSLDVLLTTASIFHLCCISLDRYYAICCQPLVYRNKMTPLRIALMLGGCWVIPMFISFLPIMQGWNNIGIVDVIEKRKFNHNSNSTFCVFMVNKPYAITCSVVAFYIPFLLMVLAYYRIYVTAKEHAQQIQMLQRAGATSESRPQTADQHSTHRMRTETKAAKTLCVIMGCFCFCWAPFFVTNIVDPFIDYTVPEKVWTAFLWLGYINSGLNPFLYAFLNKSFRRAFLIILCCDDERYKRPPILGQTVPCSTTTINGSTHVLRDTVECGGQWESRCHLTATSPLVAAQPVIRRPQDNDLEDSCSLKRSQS
# Procedure Summary: Relaxation of carbachol-contracted rat oesophageal tunica muscularis mucosae
# Assay type: cell-based
pEC50: −log10 of the molar value.
Property: pEC50

> print(dat)
                                   molecule                          test.target  property  reported.value
1  CCCCN1[C@@H]2COC[C@H]1C[C@@H](NC(=O)c1nn(C(C)C)c3ccccc13)C2 [Example 5]  5-HT4 receptors (Rattus norvegicus)     pEC50            6.00
2  CCCCN1[C@@H]2COC[C@H]1C[C@@H](NC(=O)c1nn(CCC)c3ccccc13)C2 [Example 1]  5-HT4 receptors (Rattus norvegicus)     pEC50            5.42
3  CCCCN1[C@@H]2COC[C@H]1C[C@@H](NC(=O)c1nn(C(C)CCC)c3ccccc13)C2 (relative stereo) [Example 9]  5-HT4 receptors (Rattus norvegicus)     pEC50            6.11
4  CCCCN1[C@@H]2COC[C@H]1C[C@@H](NC(=O)c1nn(CC)c3ccccc13)C2 [Example 4]  5-HT4 receptors (Rattus norvegicus)     pEC50            4.99
5  CCCCN1[C@@H]2COC[C@H]1C[C@@H](NC(=O)c1nn(C(C)CC)c3ccccc13)C2 (relative stereo) [Example 8]  5-HT4 receptors (Rattus norvegicus)     pEC50            6.20
6  CCCCCN1[C@@H]2COC[C@H]1C[C@@H](NC(=O)c1nn(C(C)C)c3ccccc13)C2 [Example 14]  5-HT4 receptors (Rattus norvegicus)     pEC50            5.83
7  CCCCN1[C@@H]2COC[C@H]1C[C@@H](NC(=O)c1nn(CCCC)c3ccccc13)C2 [Example 6]  5-HT4 receptors (Rattus norvegicus)     pEC50            5.33
8  CCCCCN1[C@@H]2COC[C@H]1C[C@@H](NC(=O)c1nn(C(CC)CC)c3ccccc13)C2 [Example 15]  5-HT4 receptors (Rattus norvegicus)     pEC50            6.09
9  CCCN1[C@@H]2COC[C@H]1C[C@@H](NC(=O)c1nn(C(C)C)c3ccccc13)C2 [Example 2]  5-HT4 receptors (Rattus norvegicus)     pEC50            5.54
